MEASURED ON: Protein phosphatase methylesterase 1 (Homo sapiens) (UniProt Q9Y570)
Sequence (Q9Y570 whole entry, looked up): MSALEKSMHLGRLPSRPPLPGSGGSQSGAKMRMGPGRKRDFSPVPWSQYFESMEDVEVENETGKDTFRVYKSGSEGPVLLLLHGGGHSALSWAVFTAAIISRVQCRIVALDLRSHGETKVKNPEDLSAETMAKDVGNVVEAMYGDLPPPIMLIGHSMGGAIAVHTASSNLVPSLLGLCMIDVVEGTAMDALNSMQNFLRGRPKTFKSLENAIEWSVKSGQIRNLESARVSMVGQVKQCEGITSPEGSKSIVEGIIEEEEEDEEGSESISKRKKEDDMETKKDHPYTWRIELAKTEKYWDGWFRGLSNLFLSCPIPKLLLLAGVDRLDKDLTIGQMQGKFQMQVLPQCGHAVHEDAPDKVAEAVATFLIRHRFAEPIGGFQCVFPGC
METHOD DESCRIPTION: PME-1 inhibitor activity retest, confirmation, biochemical, fluorescence polarization, FP-Rh probe, triplicate (AID 2171)
APPLIED CONDITIONS: recombinant PME-1, FP-Rh probe fluorescence polarization; at 5.9 µM
The source made the active and inactive calls.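 How the source made its calls: active means inhibition above the hit cutoff set in the earlier primary screen (cut at about 27% in these data); inactive means the rest.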
Possible outcomes: TRUE (active), FALSE (inactive)

{"MOLECULE": "COc1cc(/C=N/NC(=O)C(Cc2c[nH]c3ccccc23)NC(=O)OCc2ccccc2)cc([N+](=O)[O-])c1O (configuration not stated)", "CLASS ASSIGNMENT": "FALSE"}
{"MOLECULE": "COc1ccc(Nc2ncnc3sc(-c4ccccc4)cc23)cc1", "CLASS ASSIGNMENT": "FALSE"}
{"MOLECULE": "Nc1cc(C(=O)O)c(N)c2c1C(=O)c1ccccc1C2=O", "CLASS ASSIGNMENT": "TRUE"}
{"MOLECULE": "CCN(CC)S(=O)(=O)c1ccc(Cl)c(NC(=O)COC(=O)c2ccc(O)cc2)c1", "CLASS ASSIGNMENT": "FALSE"}
{"MOLECULE": "CCC(=Nc1ccc(N)cc1)C1=C(O)C(C(=O)OC)C(C)(C)CC1=O (configuration not stated)", "CLASS ASSIGNMENT": "FALSE"}
{"MOLECULE": "N#C/C(=C/c1ccc(N2CCCC2)c([N+](=O)[O-])c1)c1nc2ccccc2[nH]1", "CLASS ASSIGNMENT": "TRUE"}
{"MOLECULE": "CC1(C)CC(=O)C2=C(C1)N1C(=C(C#N)C2c2ccc(Cl)cc2)N=C(N)c2ccccc21 (configuration not stated)", "CLASS ASSIGNMENT": "TRUE"}
{"MOLECULE": "Cc1ccc(Cn2nnc3c(=O)[nH]c(C4CCN(S(=O)(=O)/C=C/c5ccccc5)CC4)nc32)cc1", "CLASS ASSIGNMENT": "FALSE"}
{"MOLECULE": "COc1ccc(/C=N/Nc2snc(SC)c2C#N)cc1OC", "CLASS ASSIGNMENT": "FALSE"}
{"MOLECULE": "Cc1ccc(S(=O)(=O)Oc2cccc(/C=N/Nc3ccc(C(=O)O)cc3)c2)cc1", "CLASS ASSIGNMENT": "TRUE"}
{"MOLECULE": "COC(=O)c1ccc(C2Nc3cccc4cccc(c34)N2)cc1", "CLASS ASSIGNMENT": "TRUE"}
{"MOLECULE": "COc1ccc2cc3c(N)c(C(=O)NCc4ccco4)sc3nc2c1", "CLASS ASSIGNMENT": "TRUE"}
{"MOLECULE": "C/C(=N/Nc1nc(-c2ccccc2F)nc2ccccc12)c1ccccc1O", "CLASS ASSIGNMENT": "FALSE"}
{"MOLECULE": "COc1ccc(OC)c2[nH]c(C(=O)N/N=C/c3ccccc3O)cc12", "CLASS ASSIGNMENT": "FALSE"}
{"MOLECULE": "COc1cc(/C=C/c2ccc3cccc(O)c3n2)ccc1O", "CLASS ASSIGNMENT": "TRUE"}
{"MOLECULE": "Cc1ccc(NC(=O)COc2cccc(/C=C3\\SC(=S)N(CCC(=O)O)C3=O)c2)cc1Cl", "CLASS ASSIGNMENT": "FALSE"}
{"MOLECULE": "O=C(Nc1ccc(-c2csc(Nc3ccc(Cl)cc3)n2)cc1)c1cccc(C(F)(F)F)c1", "CLASS ASSIGNMENT": "FALSE"}
{"MOLECULE": "Cc1ccc2nsnc2c1NS(=O)(=O)c1c(C)ccc2nsnc12", "CLASS ASSIGNMENT": "FALSE"}
{"MOLECULE": "COc1ccc(C(=O)c2oc3ccc(OC)cc3c2N)cc1", "CLASS ASSIGNMENT": "TRUE"}
{"MOLECULE": "CCn1c2ccccc2c2cc(NC(=O)c3ccccc3[N+](=O)[O-])ccc21", "CLASS ASSIGNMENT": "FALSE"}
{"MOLECULE": "O=C(O)c1ccccc1Nc1cccc(OCc2ccc3ccccc3n2)c1", "CLASS ASSIGNMENT": "FALSE"}
{"MOLECULE": "CCc1cccc2cc3c(N)c(C(=O)Nc4ccc(S(=O)(=O)N5CCCC5)cc4)sc3nc12", "CLASS ASSIGNMENT": "FALSE"}
{"MOLECULE": "CCOc1ccccc1/C=C(\\C#N)C(=O)Nc1cccc(C(=O)O)c1", "CLASS ASSIGNMENT": "FALSE"}
{"MOLECULE": "COc1cc(/C=C2\\CCC/C(=C\\c3ccc(O)c(OC)c3)C2=O)ccc1O", "CLASS ASSIGNMENT": "TRUE"}
{"MOLECULE": "Fc1ccc2[nH]c3c(N4CCN(c5ccccc5)CC4)ncnc3c2c1", "CLASS ASSIGNMENT": "TRUE"}
{"MOLECULE": "O=[N+]([O-])c1cc(Br)c(O)c(/C=N/Nc2nnnn2-c2cccc3ccccc23)c1", "CLASS ASSIGNMENT": "TRUE"}
{"MOLECULE": "COc1ccccc1N1CCN(C(=O)C2CCN(S(=O)(=O)c3ccc(C)cc3)CC2)CC1", "CLASS ASSIGNMENT": "FALSE"}
{"MOLECULE": "Nc1ccc(O)c2c1C(=O)c1ccccc1C2=O", "CLASS ASSIGNMENT": "TRUE"}
{"MOLECULE": "Cc1cc(-c2nnc(SCC(=O)Nc3nc(-c4ccc(Cl)cc4)cs3)o2)no1", "CLASS ASSIGNMENT": "FALSE"}
{"MOLECULE": "O=C(/C=C1\\NC2(CCCC2)Cc2ccccc21)C(=O)N/N=C/c1ccc(O)c(O)c1", "CLASS ASSIGNMENT": "FALSE"}
{"MOLECULE": "C/C(=N/NC(=O)c1cc2ccccc2cc1O)C1C(=O)c2ccccc2C1=O", "CLASS ASSIGNMENT": "TRUE"}
{"MOLECULE": "Nc1[nH]n(-c2ccccc2)c(=O)c1N=Nc1ccc2c(c1)OCCO2", "CLASS ASSIGNMENT": "TRUE"}
{"MOLECULE": "O=c1cc(-c2ccccc2Cl)oc2c(NS(=O)(=O)c3cc(Cl)cc(Cl)c3O)ccc(O)c12", "CLASS ASSIGNMENT": "TRUE"}
{"MOLECULE": "Cc1cc(C)c2c(N)c(C(=O)NN)sc2n1", "CLASS ASSIGNMENT": "FALSE"}
{"MOLECULE": "O=C(O)c1ccccc1N/N=C/c1cc(Br)cc(Br)c1O", "CLASS ASSIGNMENT": "TRUE"}
{"MOLECULE": "Oc1nc(Nc2ccccc2)sc1/C=C1\\C=Nc2ccccc21", "CLASS ASSIGNMENT": "FALSE"}
{"MOLECULE": "O=S(=O)(Nc1cc2nc3ccccc3nc2n1Cc1ccccc1)c1ccc(Cl)cc1", "CLASS ASSIGNMENT": "TRUE"}
{"MOLECULE": "COc1ccc(-c2cc(-c3c(O)c(OC)c4occc4c3OC)[nH]n2)cc1", "CLASS ASSIGNMENT": "FALSE"}
{"MOLECULE": "COc1cc(/C=N\\Nc2nc3ccccc3o2)cc(OC)c1OC", "CLASS ASSIGNMENT": "TRUE"}
{"MOLECULE": "Cc1cc(C(C#N)c2ccc(Cl)cc2)c(Cl)cc1NC(=O)c1cc(I)cc(I)c1O (configuration not stated)", "CLASS ASSIGNMENT": "TRUE"}
{"MOLECULE": "Cc1[nH]c(N=Nc2ccccc2)nc1N=Nc1ccccc1", "CLASS ASSIGNMENT": "TRUE"}
{"MOLECULE": "Oc1c(Cl)cc(Cl)c(Cl)c1Cc1c(O)c(Cl)cc(Cl)c1Cl", "CLASS ASSIGNMENT": "FALSE"}

Reference for the values: PubChem BioAssay
